Target: Caspase-1 (Homo sapiens)
Sequence (P29466 120-297 limits assumed): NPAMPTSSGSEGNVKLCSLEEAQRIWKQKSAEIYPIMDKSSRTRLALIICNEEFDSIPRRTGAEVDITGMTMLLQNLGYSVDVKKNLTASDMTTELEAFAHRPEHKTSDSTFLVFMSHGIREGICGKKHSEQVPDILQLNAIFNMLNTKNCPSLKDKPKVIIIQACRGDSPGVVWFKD
Sequence (P29466 317-404 limits assumed): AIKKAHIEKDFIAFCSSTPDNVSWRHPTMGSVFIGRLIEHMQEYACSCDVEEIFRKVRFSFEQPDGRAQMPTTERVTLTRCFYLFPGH
Test: Inhibition of human recombinant IL-1 beta converting enzyme
pKi: −log10 of the molar value.
Parameter: pKi

Compound	pKi
CCC(C(=O)NC(CC(=O)O)C(=O)CN1CCN(C)CC1)n1cccc(NC(=O)c2ccc3ccccc3c2)c1=O (stereo not drawn)	7.20
CCCCCCN(C)CC(=O)[C@H](CC(=O)O)NC(=O)C(CC)n1cccc(NC(=O)c2ccc3ccccc3c2)c1=O (stereo partly drawn)	8.75
CCCCCCN(CCCCCC)CC(=O)[C@H](CC(=O)O)NC(=O)C(CC)n1cccc(NC(=O)c2ccc3ccccc3c2)c1=O (stereo partly drawn)	8.62

P. CCC(C(=O)N[C@@H](CC(=O)O)C(=O)CN(C)Cc1ccccc1)n1cccc(NC(=O)c2ccc3ccccc3c2)c1=O (stereo partly drawn)
Q. CCC(C(=O)N[C@@H](CC(=O)O)C(=O)CNCCc1ccccc1)n1cccc(NC(=O)c2ccc3ccccc3c2)c1=O (stereo partly drawn)
R. CCC(C(=O)N[C@@H](CC(=O)O)C(=O)CN(C)CCc1ccccc1)n1cccc(NC(=O)c2ccc3ccccc3c2)c1=O (stereo partly drawn)
S. CCCCCC(=O)NCC(=O)C(CC(=O)O)NC(=O)C(CC)n1cccc(NC(=O)c2ccc3ccccc3c2)c1=O (stereo not drawn)
Q) Arrange the 4 entries by pKi so the values rise. Provide the ranking by listing each label in its place in the requested order.
A) P, S, R, Q
(P: 7.24, S: 7.46, R: 8.32, Q: 9.43)
